Hello, the source for this data is ChEMBL document CHEMBL1149247, in case you need it.

Here, each record is paired with measured Activity data.
system: LNCaP; experiment: Cell cycle arrest in human LNCaP cells by accumulation at S phase at 10 uM after 72 hrs by FACS flow cytometry; type: functional
Kindly answer with a numeric value in %, unit omitted.

COC1(c2cc(F)cc(OCc3cc(-c4ccccc4)n(-c4ccc(OC(F)(F)F)cc4)n3)c2)CCOCC1 :: 10.6

Case "COC1(c2cc(F)cc(OCc3cc(-c4ccccc4)n(-c4ccccc4)n3)c2)CCOCC1" , LNCaP, Activity recorded as 10.6

Case Cc1ccc(-c2cc(C(F)(F)F)nn2-c2ccc(S(N)(=O)=O)cc2)cc1 [CELECOXIB] , LNCaP, Activity recorded as 9

Case CS(=O)(=O)c1ccc(C2=C(c3ccccc3)C(=O)OC2)cc1 [ROFECOXIB] , LNCaP, Activity recorded as 11.4

###

Here, each record is paired with measured IC50 data.
target: Polyunsaturated fatty acid 5-lipoxygenase (Homo sapiens, UniProt P09917); test: Inhibition of 5LOX in human whole blood assessed as inhibition of calcium ionophore A 23187-stimulated 5HETE production by HPLC analysis
Sequence (P09917 whole entry): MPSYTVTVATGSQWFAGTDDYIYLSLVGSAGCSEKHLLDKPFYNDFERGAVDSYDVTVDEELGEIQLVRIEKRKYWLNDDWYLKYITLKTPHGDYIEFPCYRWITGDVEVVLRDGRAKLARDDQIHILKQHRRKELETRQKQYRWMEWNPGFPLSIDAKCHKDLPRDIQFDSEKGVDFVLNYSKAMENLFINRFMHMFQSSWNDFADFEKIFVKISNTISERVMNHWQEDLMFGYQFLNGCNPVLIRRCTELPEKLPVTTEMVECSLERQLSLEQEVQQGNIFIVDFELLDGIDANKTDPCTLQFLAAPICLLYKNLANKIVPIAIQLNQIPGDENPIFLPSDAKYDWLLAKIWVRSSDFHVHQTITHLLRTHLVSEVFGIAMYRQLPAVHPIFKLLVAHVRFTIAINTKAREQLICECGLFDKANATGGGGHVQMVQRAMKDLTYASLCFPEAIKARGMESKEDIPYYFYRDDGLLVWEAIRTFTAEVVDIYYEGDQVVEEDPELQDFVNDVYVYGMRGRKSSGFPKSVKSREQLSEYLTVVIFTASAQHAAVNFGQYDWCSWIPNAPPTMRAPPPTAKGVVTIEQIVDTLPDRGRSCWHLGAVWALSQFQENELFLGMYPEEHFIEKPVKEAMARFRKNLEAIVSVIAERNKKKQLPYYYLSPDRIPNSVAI
Kindly answer with a numeric value in nM, unit omitted.

Worked examples follow.
COC1(c2cc(F)cc(OCc3cc(-c4ccccc4)n(-c4ccc(C)c(C)c4)n3)c2)CCOCC1 :: 760
COC1(c2cc(F)cc(OCc3cc(-c4ccccc4)n(-c4ccc(F)cc4)n3)c2)CCOCC1 :: 480
COC1(c2cc(F)cc(OCc3ccc4c(ccc(=O)n4C)c3)c2)CCOCC1 :: 83

Field IC50 (entry "COc1ccc(-n2nc(COc3cc(F)cc(C4(OC)CCOCC4)c3)cc2-c2ccccc2)cc1" ) reads 770

Field IC50 (entry "COC1(c2cc(F)cc(OCc3cc(-c4ccccc4)n(-c4ccc(Cl)c(Cl)c4)n3)c2)CCOCC1" ) reads 800

Field IC50 (entry "COC1(c2cc(F)cc(OCc3cc(-c4ccccc4)n(-c4ccccc4)n3)c2)CCOCC1" ) reads 570

Field IC50 (entry "COC1(c2cc(F)cc(OCc3cc(-c4ccccc4)n(-c4ccc(OC(F)(F)F)cc4)n3)c2)CCOCC1" ) reads 850

Field IC50 (entry "COC1(c2cc(F)cc(OCc3cc(-c4ccccc4)n(-c4ccc(S(N)(=O)=O)cc4)n3)c2)CCOCC1" ) reads 740

Field IC50 (entry "COC1(c2cc(F)cc(OCc3cc(-c4ccccc4)n(-c4ccc(S(C)(=O)=O)cc4)n3)c2)CCOCC1" ) reads 300

###

molecular target: Prostaglandin G/H synthase 1 (Homo sapiens); assay: Inhibition of COX1 expressed in CHO cells assessed as inhibition of arachidonic acid-stimulated PGE2 production by enzyme immunoassay
Sequence (P23219 whole entry): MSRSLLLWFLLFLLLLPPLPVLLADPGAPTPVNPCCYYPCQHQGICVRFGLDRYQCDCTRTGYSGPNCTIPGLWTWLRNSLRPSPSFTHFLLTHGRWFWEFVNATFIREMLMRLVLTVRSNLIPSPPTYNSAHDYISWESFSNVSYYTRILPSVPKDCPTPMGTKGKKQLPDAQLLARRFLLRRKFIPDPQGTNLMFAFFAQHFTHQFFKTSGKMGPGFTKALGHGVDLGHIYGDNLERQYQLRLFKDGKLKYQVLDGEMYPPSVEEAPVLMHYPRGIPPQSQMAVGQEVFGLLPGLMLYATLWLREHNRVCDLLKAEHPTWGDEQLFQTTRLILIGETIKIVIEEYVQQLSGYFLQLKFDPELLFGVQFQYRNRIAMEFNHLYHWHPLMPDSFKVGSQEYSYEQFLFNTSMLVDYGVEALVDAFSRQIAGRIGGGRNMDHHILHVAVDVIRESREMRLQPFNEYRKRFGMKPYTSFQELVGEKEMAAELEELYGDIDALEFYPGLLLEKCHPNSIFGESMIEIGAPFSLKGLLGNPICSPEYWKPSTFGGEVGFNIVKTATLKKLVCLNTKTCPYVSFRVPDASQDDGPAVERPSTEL
measurement.name: IC50

Field IC50 (entry "CCOc1cccc(OCc2cc(-c3ccccc3)n(-c3ccc(S(C)(=O)=O)cc3)n2)c1" ) reads > 100 µM

Field IC50 (entry "COC1(c2cc(F)cc(OCc3ccc4c(ccc(=O)n4C)c3)c2)CCOCC1" ) reads > 100 µM

Field IC50 (entry "COc1ccc(OCc2cc(-c3ccccc3)n(-c3ccc(S(C)(=O)=O)cc3)n2)cc1OC" ) reads > 100 µM

###

Here, each record is paired with measured Selectivity ratio data.
organism: Homo sapiens; assay: Selectivity for COX2 over COX1

Worked examples follow.
COc1ccc(OCc2cc(-c3ccccc3)n(-c3ccc(S(C)(=O)=O)cc3)n2)cc1OC :: > 142
CS(=O)(=O)c1ccc(-n2nc(COc3cccc([N+](=O)[O-])c3)cc2-c2ccccc2)cc1 :: > 134
COc1ccc(-n2nc(COc3cc(F)cc(C4(OC)CCOCC4)c3)cc2-c2ccccc2)cc1 :: < 1

For the next question, use this molecule.
Field Selectivity ratio (entry "CCOc1cccc(OCc2cc(-c3ccccc3)n(-c3ccc(S(C)(=O)=O)cc3)n2)c1" ) reads > 112
